Could you please report measured EC50 for the items listed next?
# assay protocol: Induction of HbF production in human erythroid progenitor cells measured after 3 days by ELISA assay
# Type: functional, cell-based
# reported conditions: Erythroid progenitor cell, 72 h, read-out: pEC50 (converted)
Answers are plain numbers, in nM.

Below, 2 compounds whose answers are already recorded.
- compound: "O=C(O)c1ccn(-c2ccc3c(c2)B(O)OC3)c1"
  measure unit: "nM"
  readout number: 316
- compound: "O=C(CCc1ccc2c(c1)B(O)OC2)NS(=O)(=O)c1ccccc1"
  measure unit: "nM"
  readout number: 832

Required: EC50, one value per compound below.
1. CC(C(=O)NS(=O)(=O)C1CC1)c1ccc2c(c1)B(O)OC2 (racemic)
2. O=C(Cc1ccc2c(c1)B(O)OC2)NS(=O)(=O)C1CC1

Completion:
26.9
18.2

* * *

# assay protocol: Half life in Sprague-Dawley rat at 5 mg/kg,po
# Assay type: ADME, organism-based
# reported conditions: in vivo
For each entry below, report its half-life value.
Answers are plain numbers, in h.

Illustrative cases are given below, each with its answer.
- record smiles: "OB1OCc2ccc(Cc3nnn[nH]3)cc21"
  readout number: 3.67
- record smiles: "CC(C)(c1ccc2c(c1)B(O)OC2)c1nnn[nH]1"
  readout number: 1.05
- record smiles: "O=C(Nc1ccc2c(c1)B(O)OC2)c1cccn(Cc2ccccc2)c1=O"
  readout number: 4.5
- record smiles: "O=C(Cc1ccc2c(c1)B(O)OC2)NS(=O)(=O)c1ccccc1"
  readout number: 7.29
- record smiles: "C[C@H](C(=O)O)c1ccc2c(c1)B(O)OC2"
  readout number: 1.14

Go through the list and state half-life for each entry.
1. OB1OCc2ccc(OCc3nnn[nH]3)cc21
2. C[C@@H](C(=O)O)c1ccc2c(c1)B(O)OC2

Completion:
1.3
16.6

* * *

# assay protocol: Cmax in Sprague-Dawley rat at 5 mg/kg,po
# Format: ADME, organism-based
# Parameters: dose 5 mg/kg, route po
# reported conditions: in vivo
observation type: log10 Cmax (log10 of the value in ng/mL)
# values: log10(Cmax), units ng/mL

- record smiles: "C[C@H](C(=O)O)c1ccc2c(c1)B(O)OC2"
  log10 Cmax: 3.24
- record smiles: "OB1OCc2ccc(OCc3nnn[nH]3)cc21"
  log10 Cmax: 1.85
- record smiles: "C[C@@H](C(=O)O)c1ccc2c(c1)B(O)OC2"
  log10 Cmax: 3.27
- record smiles: "O=C(Nc1ccc2c(c1)B(O)OC2)c1cccn(Cc2ccccc2)c1=O"
  log10 Cmax: 3.15
- record smiles: "O=C(Cc1ccc2c(c1)B(O)OC2)NS(=O)(=O)c1ccccc1"
  log10 Cmax: 3.11

Hey, quick one: what's log10 Cmax for each of these?
1. OB1OCc2ccc(Cc3nnn[nH]3)cc21
2. CC(C)(c1ccc2c(c1)B(O)OC2)c1nnn[nH]1

Completion:
2.45
3.07

* * *

Task for the reader: assign each of the following compounds its reported EC50.
# assay protocol: Induction of HbF production in human erythroid progenitor cells measured after 3 days by ELISA assay
# Format: functional, cell-based
# reported conditions: Erythroid progenitor cell, 72 h, read-out: pEC50 (converted)
Numbers only, in nM.

Look over these answered cases.
- compound: "CCC(C(=O)O)c1ccc2c(c1)B(O)OC2 (racemic)"
  EC50 / nM: 50.1
- compound: "O=C(Cc1ccc2c(c1)B(O)OC2)NS(=O)(=O)c1ccccc1"
  EC50 / nM: 64.6
- compound: "CC(C)C(C(=O)O)c1ccc2c(c1)B(O)OC2 (racemic)"
  EC50 / nM: 646
- compound: "OB1OCc2ccc(Oc3nnn[nH]3)cc21"
  EC50 / nM: 129
- compound: "O=C(Nc1cccn(Cc2ccccc2)c1=O)c1ccc2c(c1F)B(O)OC2"
  EC50 / nM: 91.2
- compound: "OB1OCc2ccc(Cc3nnn[nH]3)cc21"
  EC50 / nM: 9.12
- compound: "OB1OCc2ccc(Oc3nnn[nH]3)c(F)c21"
  EC50 / nM: 724
- compound: "O=C(Nc1cccn(Cc2ccccc2)c1=O)c1cc(F)c2c(c1)B(O)OC2"
  EC50 / nM: 2140

Dear colleague, could you please provide EC50 for the compounds listed below?
1. O=C(Nc1cccn(Cc2ccccc2)c1=O)c1ccc2c(c1)B(O)OC2
2. O=C(O)Cc1ccc2c(c1)B(O)OC2
3. O=C(O)c1cccn1-c1ccc2c(c1)B(O)OC2
4. CC(C(=O)O)c1ccc2c(c1)B(O)OC2 (racemic)

Completion:
[1020, 1070, 11500, 47.9]

* * *

Kindly state Cmax for each of the entries shown.
# assay protocol: Cmax in Sprague-Dawley rat at 10 mg/kg,po
# Format: ADME, organism-based
# Set-up: dose 10 mg/kg, route po
# reported conditions: in vivo
Answers are plain numbers, in ng/mL.

- record smiles: "C[C@@H](C(=O)O)c1ccc2c(c1)B(O)OC2"
  Cmax (ng/mL): 2710

Moving on to the next molecule.
Prompt: What measured Cmax goes with CC(C)(c1ccc2c(c1)B(O)OC2)c1nnn[nH]1 ?
Completion: 3880

* * *

# assay protocol: Induction of HbF production in human erythroid progenitor cells measured after 3 days by ELISA assay
# Assay type: functional, cell-based
# reported conditions: Erythroid progenitor cell, 72 h, read-out: EC50
observation type: EC50 (nM)
Give bare numbers, in nM.

Prompt: Form field: reported EC50 of C[C@@H](C(=O)O)c1ccc2c(c1)B(O)OC2
Completion: 40

* * *

# assay protocol: Induction of HbF production in human erythroid progenitor cells measured after 3 days by ELISA assay
# Type: functional, cell-based
# reported conditions: Erythroid progenitor cell, 72 h, read-out: pEC50 (converted)
API: label(entry) gives yes if the entry's EC50 is strictly smaller than 300 nM; on equality or larger values it gives no.

Prompt: Is the reported EC50 for NC(=O)c1ccc2c(c1)B(O)OC2 strictly below 300 nM?
Completion: no

Prompt: Answer whether the compound NC(=O)CNC(=O)c1ccc2c(c1)B(O)OC2 has EC50 strictly less than 300 nM
Completion: no

Prompt: Hello, I'm reviewing records and need to know if EC50 of O=C(O)CCc1ccc2c(c1)B(O)OC2 is below 300 nM. Could you check?
Completion: no

Prompt: I'd appreciate it if you could check whether O=C(Cc1ccc2c(c1)B(O)OC2)NS(=O)(=O)C1CCCC1 has EC50 smaller than 300 nM.
Completion: yes

Prompt: Hello, I'm reviewing records and need to know if EC50 of O=C(Nc1cccc(B(O)O)c1)c1cccn(Cc2ccccc2)c1=O is below 300 nM. Could you check?
Completion: no

Prompt: Quick check: EC50 of Cc1ccc(NC(=O)c2cccn(Cc3ccccc3)c2=O)cc1B(O)O under 300 nM?
Completion: no

Prompt: is_below(EC50, 300 nM) for CC(C)(C(=O)O)c1ccc2c(c1)B(O)OC2 ?
Completion: yes

* * *

# assay protocol: Induction of HbF production in human erythroid progenitor cells measured after 3 days by ELISA assay
# Type: functional, cell-based
# reported conditions: Erythroid progenitor cell, 72 h, read-out: pEC50 (converted)
So basically, if EC50 comes in under 300 nM it's Y, and if it's 300 nM or more it's N.

Previously resolved entries follow.
- record smiles: "O=C(NS(=O)(=O)c1ccc2c(c1)B(O)OC2)c1ccccc1"
  group: "Y"
- record smiles: "OB1OCc2ccc(OCc3nnn[nH]3)cc21"
  group: "Y"
- record smiles: "C[C@@H](C(=O)O)c1ccc2c(c1)B(O)OC2"
  group: "Y"
- record smiles: "O=C(O)CNC(=O)c1ccc2c(c1)B(O)OC2"
  group: "N"
- record smiles: "C[C@H](C(=O)O)c1ccc2c(c1)B(O)OC2"
  group: "N"
- record smiles: "CC(C)(c1ccc2c(c1)B(O)OC2)c1nnn[nH]1"
  group: "Y"

Now, please, on to the next molecule.
Prompt: Please let me know if O=C(O)c1ccc2c(c1)B(O)OC2 shows EC50 below 300 nM.
Completion: N
